# ASSAY REMARKS: Chemical stability in pH 5.7 buffer at room temperature after 4 weeks
# Assay type: physicochemical
# RECORDED CONDITIONS: read-out: Stability
In this section we review reported remaining at 672 h values for a set of molecules.
// return numeric value only (unit: %, not printed)

Recall and state the measured remaining at 672 h for "COc1cc(OCCO[N+](=O)[O-])cc(C)c1C(=O)O[C@@H](CNC(C)(C)C)COc1nsnc1N1CCOCC1.O=C(O)/C=C\C(=O)O" .
100

Recall and state the measured remaining at 672 h for "COc1cc(COC(=O)CCCO[N+](=O)[O-])c(C(=O)O[C@@H](CNC(C)(C)C)COc2nsnc2N2CCOCC2)c(OC)c1.O=C(O)/C=C\C(=O)O" .
90.6

Recall and state the measured remaining at 672 h for "COc1cc(COC(=O)C(C)(C)CO[N+](=O)[O-])c(C(=O)O[C@@H](CNC(C)(C)C)COc2nsnc2N2CCOCC2)c(OC)c1.O=C(O)/C=C\C(=O)O" .
94.7

Continuing:
Recall and state the measured remaining at 672 h for "COc1cc(COC(=O)CCCCCO[N+](=O)[O-])cc(OC)c1C(=O)O[C@@H](CNC(C)(C)C)COc1nsnc1N1CCOCC1.O=C(O)/C=C\C(=O)O" .
98

Recall and state the measured remaining at 672 h for "COc1cc(OCCO[N+](=O)[O-])ccc1C(=O)O[C@@H](CNC(C)(C)C)COc1nsnc1N1CCOCC1" .
84.4

Recall and state the measured remaining at 672 h for "COc1cc(COC(=O)CCCCCO[N+](=O)[O-])c(C(=O)O[C@@H](CNC(C)(C)C)COc2nsnc2N2CCOCC2)c(OC)c1.O=C(O)/C=C\C(=O)O" .
97.7

Recall and state the measured remaining at 672 h for COc1cc(COC(=O)CCOCC(CO[N+](=O)[O-])O[N+](=O)[O-])c(C(=O)O[C@@H](CNC(C)(C)C)COc2nsnc2N2CCOCC2)c(OC)c1.O=C(O)/C=C\C(=O)O (stereo partly drawn) .
95.8

Recall and state the measured remaining at 672 h for "COc1cccc(OCCO[N+](=O)[O-])c1C(=O)O[C@@H](CNC(C)(C)C)COc1nsnc1N1CCOCC1.O=C(O)/C=C\C(=O)O" .
98.3
